# EC50 per entry
- ASSAYED TARGET: UniProt P04150
- Sequence (P04150 whole entry): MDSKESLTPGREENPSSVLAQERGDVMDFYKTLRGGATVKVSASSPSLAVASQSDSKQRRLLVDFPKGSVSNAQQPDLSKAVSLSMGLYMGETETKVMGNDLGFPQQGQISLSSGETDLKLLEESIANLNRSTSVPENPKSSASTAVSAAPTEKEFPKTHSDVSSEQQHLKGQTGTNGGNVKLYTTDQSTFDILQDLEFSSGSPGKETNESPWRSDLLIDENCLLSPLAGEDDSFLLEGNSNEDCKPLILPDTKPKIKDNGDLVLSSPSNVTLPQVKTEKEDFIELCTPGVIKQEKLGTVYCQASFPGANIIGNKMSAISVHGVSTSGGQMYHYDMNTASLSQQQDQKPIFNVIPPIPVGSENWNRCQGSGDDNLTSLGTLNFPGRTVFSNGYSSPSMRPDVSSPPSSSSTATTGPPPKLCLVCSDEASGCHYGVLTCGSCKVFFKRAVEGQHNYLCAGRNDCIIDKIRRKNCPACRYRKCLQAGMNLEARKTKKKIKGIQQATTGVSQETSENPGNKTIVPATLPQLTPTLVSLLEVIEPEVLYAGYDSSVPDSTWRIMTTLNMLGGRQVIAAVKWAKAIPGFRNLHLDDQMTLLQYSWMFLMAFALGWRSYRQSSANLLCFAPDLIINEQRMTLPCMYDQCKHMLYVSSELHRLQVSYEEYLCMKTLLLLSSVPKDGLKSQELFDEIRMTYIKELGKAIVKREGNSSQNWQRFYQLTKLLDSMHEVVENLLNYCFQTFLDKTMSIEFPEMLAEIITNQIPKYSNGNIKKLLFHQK
- EXPERIMENTAL DETAILS: Transcriptional repression in HepG2 cells expressing human glucocorticoid receptor
- Assay type: functional, cell-based
Enter your answer as a number in nM; do not include the unit.

compound="C=CCC1Oc2ccc(Br)c(OC)c2-c2ccc3c(c21)C(C)=CC(C)(C)N3 (stereo not given)" assayed_target="UniProt P04150" val=82
compound="C=CCC1Oc2ccc(C(=O)OC)c(OC)c2-c2ccc3c(c21)C(C)=CC(C)(C)N3 (stereo not given)" assayed_target="UniProt P04150" val=100
compound="C#Cc1cccc2c1-c1ccc3c(c1C(CC=C)O2)C(C)=CC(C)(C)N3 (stereo not given)" assayed_target="UniProt P04150" val=59
compound="C=CCC1Oc2ccc(OC)c(OC)c2-c2ccc3c(c21)C(C)=CC(C)(C)N3 (stereo not given)" assayed_target="UniProt P04150" val=120
compound="C=CCC1Oc2cccc(C#N)c2-c2ccc3c(c21)C(C)=CC(C)(C)N3 (stereo not given)" assayed_target="UniProt P04150" val=60
compound="C=CCC1Oc2ccc(O)c(OC)c2-c2ccc3c(c21)C(C)=CC(C)(C)N3 (stereo not given)" assayed_target="UniProt P04150" val=14
compound="C=CCC1Oc2c(Br)ccc(OC)c2-c2ccc3c(c21)C(C)=CC(C)(C)N3 (stereo not given)" assayed_target="UniProt P04150" val=59
compound="C=CCC1Oc2c(C)ccc(OC)c2-c2ccc3c(c21)C(C)=CC(C)(C)N3 (stereo not given)" assayed_target="UniProt P04150" val=81
compound="C=CCC1Oc2cccc(O)c2-c2ccc3c(c21)C(C)=CC(C)(C)N3 (stereo not given)" assayed_target="UniProt P04150" val=250

**Q:** Please look at this compound and report its EC50: C=CCC1Oc2cccc(C=C)c2-c2ccc3c(c21)C(C)=CC(C)(C)N3 (stereo not given)
**A:** 12
